FYI, the data here is from patent US12527763B2.

Assay: Pharmacokinetic experiment in Beagle dogs
Format: in vivo
Details: dog, plasma, oral, 5.0 mg/kg
endpoint.label: AUC(0-inf)

* Cc1c(C(=O)Nc2ccc([S@SP2](C)(=O)=O)c(F)c2)cn(CCO)c1-c1ccccc1C(F)(F)F | 145000 ng·h/mL

Please look at this molecule and report its AUC(0-inf): Cc1c(C(=O)Nc2ccc(S(C)(=O)=O)cc2)cn(CCO)c1-c1ccccc1C(F)(F)F (atropisomer, axis not shown) [CS-3150, Esaxerenone, reference compound]
45600 ng·h/mL

###

Entries and their half-life
Assay: Pharmacokinetic experiment in Beagle dogs
Type: in vivo
Details: dog, plasma, oral, 5.0 mg/kg
Enter your answer as a number in h; do not include the unit.

- Cc1c(C(=O)Nc2ccc(S(C)(=O)=O)cc2)cn(CCO)c1-c1ccccc1C(F)(F)F (atropisomer, axis not shown) [CS-3150, Esaxerenone, reference compound]: 20.3

Now examine the next entry.
Using the record for Cc1c(C(=O)Nc2ccc([S@SP2](C)(=O)=O)c(F)c2)cn(CCO)c1-c1ccccc1C(F)(F)F [Example 2] , state its measured half-life.
25.3

###

Test: Pharmacokinetic experiment in Beagle dogs
Assay type: in vivo
Details: dog, plasma, oral, 5.0 mg/kg
Some compounds, each annotated with its measured Cmax.
Provide only the numeric value, understood in ng/mL.

Find the measured Cmax of Cc1c(C(=O)Nc2ccc(S(C)(=O)=O)cc2)cn(CCO)c1-c1ccccc1C(F)(F)F (atropisomer, axis not shown) [CS-3150, Esaxerenone, reference compound] and report it.
1580

State its Cmax for this compound: Cc1c(C(=O)Nc2ccc([S@SP2](C)(=O)=O)c(F)c2)cn(CCO)c1-c1ccccc1C(F)(F)F
4690

###

Assay: Pharmacokinetic experiment in cynomolgus monkey
Type: in vivo, cynomolgus monkeys
Settings: cynomolgus monkey, plasma; female cynomolgus monkeys, oral, 3 mg/kg
Measured Cmax by item
Number first, unit second.

Tell me Cmax reported for Cc1c(C(=O)Nc2ccc(S(C)(=O)=O)cc2)cn(CCO)c1-c1ccccc1C(F)(F)F (atropisomer, axis not shown) [CS-3150, Esaxerenone, reference compound]
741 ng/mL

For the compound Cc1c(C(=O)Nc2ccc([S@SP2](C)(=O)=O)c(F)c2)cn(CCO)c1-c1ccccc1C(F)(F)F [Example 2] , give its reported Cmax.
1040 ng/mL

###

Target: mineralocorticoid receptor (MR) (Homo sapiens (Human), UniProt P08235)
Sequence (P08235 726-964, species assumed): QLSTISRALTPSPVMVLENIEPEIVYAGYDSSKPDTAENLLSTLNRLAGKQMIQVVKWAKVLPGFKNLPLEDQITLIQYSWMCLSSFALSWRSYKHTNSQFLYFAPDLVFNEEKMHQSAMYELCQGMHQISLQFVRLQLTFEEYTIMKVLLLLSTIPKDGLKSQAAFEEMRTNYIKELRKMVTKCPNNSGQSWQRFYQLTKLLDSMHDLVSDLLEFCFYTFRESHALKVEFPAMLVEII
Assay: In vitro activity test: MR LBD-Gal4 DBD dual luciferase reporter gene assay in HEK293 cells with aldosterone at EC80
Conditions: antagonism of aldosterone at EC80, 18 hours
pIC50: −log10 of the molar value.
Binary classification by pIC50, with 8 as an inclusive lower bound for y; all other cases are n.

Past entries and their recorded results:
• Cc1c(C(=O)Nc2ccc(S(C)(=O)=O)c(F)c2)cn(C2COC2)c1-c1ccccc1C(F)(F)F [Example 6] = n
• Cc1c(C(=O)Nc2ccc(S(C)(=O)=O)c(F)c2)cn(CC2(O)CC2)c1-c1ccccc1C(F)(F)F [Example 3] = n
• Cc1c(C(=O)Nc2ccc(S(C)(=O)=O)c(F)c2)cn(CC2CCO2)c1-c1ccccc1C(F)(F)F (stereo not shown) [Example 5] = n
• Cc1c(C(=O)Nc2ccc(S(C)(=O)=O)c(F)c2)cn(-c2cccnc2)c1-c1ccccc1C(F)(F)F [Example 7] = n
• Cc1c(C(=O)Nc2cc(F)c3c(c2)sc(=O)n3C)cn(CCO)c1-c1ccccc1C(F)(F)F [Example 8] = n

pIC50 >= 8 for Cc1c(C(=O)Nc2ccc([S@SP2](C)(=O)=O)c(F)c2)cn(CCO)c1-c1ccccc1C(F)(F)F [Example 2] ?
y
